# Assay System: JAK1 (Homo sapiens (Human), UniProt P23458)
# Sequence (P23458 875-1153): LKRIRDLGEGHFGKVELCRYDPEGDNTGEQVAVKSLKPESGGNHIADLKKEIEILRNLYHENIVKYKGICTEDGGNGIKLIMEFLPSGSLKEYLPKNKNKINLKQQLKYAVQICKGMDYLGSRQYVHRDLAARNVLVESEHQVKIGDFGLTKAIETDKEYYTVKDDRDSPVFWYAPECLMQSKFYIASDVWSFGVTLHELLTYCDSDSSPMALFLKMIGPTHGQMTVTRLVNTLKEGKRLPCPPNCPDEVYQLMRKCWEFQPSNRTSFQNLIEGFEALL
# Method Summary: JAK Caliper Enzyme Assay at 1 mM ATP, JAK1
# Type: biochemical
Answer each item with its documented IC50.
Answers are plain numbers, in nM.

These recorded examples may help you get a feel for the data.
[
  {
    "Molecule": "N#CCC1(n2ccc(-c3nc(-c4cc[nH]n4)cc4ncccc34)n2)CC2(COC2)C1 [Example 37]",
    "Assay System": "JAK1 (Homo sapiens (Human), UniProt P23458)",
    "IC50, nM": 4280
  },
  {
    "Molecule": "CO[C@H]1C[C@@](CC#N)(n2ccc(-c3nc(-c4cn[nH]c4)cc4ncccc34)n2)C1 [Example 80]",
    "Assay System": "JAK1 (Homo sapiens (Human), UniProt P23458)",
    "IC50, nM": 1060
  },
  {
    "Molecule": "CO[C@H]1C[C@](CC#N)(n2ccc(-c3nc(-c4ccn[nH]4)cc4ncccc34)n2)C1 [Example 30]",
    "Assay System": "JAK1 (Homo sapiens (Human), UniProt P23458)",
    "IC50, nM": 1960
  },
  {
    "Molecule": "N#CC[C@]1(n2ccc(-c3nc(-c4ccnc(N)c4)cc4ncccc34)n2)C[C@@H](C#N)C1 [Example 198]",
    "Assay System": "JAK1 (Homo sapiens (Human), UniProt P23458)",
    "IC50, nM": 39
  },
  {
    "Molecule": "N#CC[C@]1(n2ncc(-c3cc(-c4ccc(N)nc4)cc4ncccc34)n2)C[C@H](C#N)C1 [Example 365]",
    "Assay System": "JAK1 (Homo sapiens (Human), UniProt P23458)",
    "IC50, nM": 2660
  },
  {
    "Molecule": "N#CC[C@H]1C[C@](CC#N)(n2ccc(-c3nc(-c4cn[nH]c4)cc4ncccc34)n2)C1 [Example 79]",
    "Assay System": "JAK1 (Homo sapiens (Human), UniProt P23458)",
    "IC50, nM": 1050
  }
]

# evaluate next
Request: Give its IC50 value. Item: N#CC[C@]1(n2ccc(-c3nc(-c4cnn(CCO)c4)cc4ncccc34)n2)C[C@@H](C#N)C1 [Example 127]
Response: 64

====

# Assay System: JAK3 (Homo sapiens (Human), UniProt P52333)
# Sequence (P52333 822-1111): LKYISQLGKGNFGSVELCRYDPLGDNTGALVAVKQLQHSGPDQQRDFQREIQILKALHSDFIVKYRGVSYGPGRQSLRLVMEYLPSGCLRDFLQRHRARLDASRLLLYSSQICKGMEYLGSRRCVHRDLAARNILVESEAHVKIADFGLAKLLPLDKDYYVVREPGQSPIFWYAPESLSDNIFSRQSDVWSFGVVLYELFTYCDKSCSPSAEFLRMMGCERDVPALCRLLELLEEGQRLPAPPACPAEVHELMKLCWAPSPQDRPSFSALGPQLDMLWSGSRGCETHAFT
# Method Summary: JAK Caliper Enzyme Assay at 1 mM ATP, JAK3
# Assay type: biochemical
Metric Name: IC50

[
  {
    "Compound": "CC(=O)N(C)C1CC(CC#N)(n2ccc(-c3nc(-c4cc[nH]n4)cc4ncccc34)n2)C1 (stereo not shown)",
    "Metric Name": "IC50",
    "Test Value": "> 10 µM"
  },
  {
    "Compound": "N#CC[C@]1(n2ncc(-c3cc(-c4cc[nH]n4)cc4ncccc34)n2)C[C@@H](C#N)C1",
    "Metric Name": "IC50",
    "Test Value": "3.1 µM"
  },
  {
    "Compound": "Cc1cc(-c2nc(-c3cc(N)n(C)n3)cc3ncccc23)nn1[C@]1(CC#N)C[C@@H](C#N)C1",
    "Metric Name": "IC50",
    "Test Value": "> 10 µM"
  },
  {
    "Compound": "N#CC[C@]1(n2ncc(-c3cc(-c4cn[nH]c4N)cc4ncccc34)n2)C[C@@H](C#N)C1",
    "Metric Name": "IC50",
    "Test Value": "8.03 µM"
  }
]

Give me IC50 for each of these compounds, listed below.
1. N#CC[C@]1(n2ncc(-c3cc(-c4cccnc4N)cc4ncccc34)n2)C[C@@H](C#N)C1
2. Cn1cc(-c2cc(-c3ccn(C4(CC#N)CN(CC(F)(F)F)C4)n3)c3cccnc3c2)cn1

Response:
> 10 µM
> 10 µM
